Settings: buffer; pH 7.4; 200.0 µM
Attribute Measured: solubility kinetic

Study these solved cases before continuing.
Indicate the recorded solubility kinetic value for this molecule: C/C(=N\Nc1ccccc1C(=O)O)c1ccncc1
> 38.3 µg/mL

Indicate the recorded solubility kinetic value for this molecule: Nc1cc2c(cc1[N+](=O)[O-])OCCOCCOCCO2
> 42.6 µg/mL

Indicate the recorded solubility kinetic value for this molecule: CC(=O)c1c(C)[nH]c(C(=O)COC(=O)c2ccc(C)s2)c1C
3.5 µg/mL

Indicate the recorded solubility kinetic value for this molecule: CCOC(=O)c1ccc(NC2=CC(=O)CC(c3ccco3)C2)cc1 (configuration not stated)
9.6 µg/mL

New cases:
Indicate the recorded solubility kinetic value for this molecule: Cc1ccc(OCC(=O)Nc2ccc3c(c2)C(=O)NC3=O)cc1
2.4 µg/mL

Indicate the recorded solubility kinetic value for this molecule: O=C(COc1ccc2ccc(=O)oc2c1)NC1CCCC1
> 43.1 µg/mL

Indicate the recorded solubility kinetic value for this molecule: COc1cc(C(=O)COC(=O)c2c(C)noc2C)cc(OC)c1OC
> 52.4 µg/mL

Indicate the recorded solubility kinetic value for this molecule: Cc1ccccc1C(=O)NCCCn1ccnc1
> 36.5 µg/mL

Indicate the recorded solubility kinetic value for this molecule: CN1CCN(CC(C)(C)NS(=O)(=O)c2ccccc2)CC1
> 46.7 µg/mL

Indicate the recorded solubility kinetic value for this molecule: CS(=O)(=O)N(CC(=O)N1CCOCC1)c1ccc(Cl)cc1
> 49.9 µg/mL

Indicate the recorded solubility kinetic value for this molecule: O=C(C1CCC1)N1CCN(S(=O)(=O)c2ccccc2)CC1
> 46.3 µg/mL

Indicate the recorded solubility kinetic value for this molecule: CN(C)C(CNC(=O)c1c(F)cccc1Cl)c1ccco1 (configuration not stated)
> 46.6 µg/mL
